Hi there, I'd appreciate the recorded solubility for every entry that follows.
- Measurement Description: physchem
- Details: pH 4, aqueous buffer
Numbers only, in µM.

CC(C)(C)C(=O)N(CCCCCCN1C[C@H](O)[C@@H](O)[C@H](O)[C@H]1CO)C1CCCCC1 = 299

Okay, next one:
## Task Given CC(C)(C)NC(=O)N(CCCCCCN1C[C@H](O)[C@@H](O)[C@H](O)[C@H]1CO)C1CCCCC1 , state its recorded solubility.
## Result 309

* * *

- Measurement Description: in vivo
- Details: male, Sprague-Dawley, rat, ip, 5 mg/kg
Test Readout: Tmax (min)
One number for each entry, in min.

## Task Given CC(C)(C)NC(=O)N(CCCCCCN1C[C@H](O)[C@@H](O)[C@H](O)[C@H]1CO)C1CCCCC1 [IHVR19029] , state its recorded Tmax.
## Result 10.2

* * *

Hi there, I'd appreciate the recorded CC50 for every entry that follows.
- Measurement Description: in vitro
- Details: bovine

OC[C@@H]1[C@@H](O)[C@H](O)[C@@H](O)CN1CCCCCCOc1cc(F)ccc1F = > 500 µM
CC(C)(C)NC(=O)N(CCCCCCN1C[C@H](O)[C@@H](O)[C@H](O)[C@H]1CO)C1CCCCC1 = > 500 µM

## Task Given CC(C)(C)C(=O)N(CCCCCCN1C[C@H](O)[C@@H](O)[C@H](O)[C@H]1CO)C1CCCCC1 , state its recorded CC50.
## Result > 500 µM

* * *

- Measurement Description: in vivo
- Details: male, Sprague-Dawley, rat, iv, 5 mg/kg
Hi there, I'd appreciate the recorded C0 for every entry that follows.
Numbers only, in µg/mL.

Reference set (2 entries):
CC(C)(C)NC(=O)N(CCCCCCN1C[C@H](O)[C@@H](O)[C@H](O)[C@H]1CO)C1CCCCC1 = 1.79
OC[C@@H]1[C@@H](O)[C@H](O)[C@@H](O)CN1CCCCCCOc1cc(F)ccc1F = 1.62

Okay, next one:
## Task Given CC(C)(C)C(=O)N(CCCCCCN1C[C@H](O)[C@@H](O)[C@H](O)[C@H]1CO)C1CCCCC1 , state its recorded C0.
## Result 1.66

* * *

- Measurement Description: in vivo
- Details: male, Sprague-Dawley, rat, po, 75 mg/kg
Test Readout: Cmax (ng/mL)
Give bare numbers, in ng/mL.

## Task Given CC(C)(C)NC(=O)N(CCCCCCN1C[C@H](O)[C@@H](O)[C@H](O)[C@H]1CO)C1CCCCC1 , state its recorded Cmax.
## Result 260

* * *

- Measurement Description: in vitro
- Details: human, Caco-2
Hi there, I'd appreciate the recorded efflux ratio for every entry that follows.
Give bare numbers.

CC(C)(C)NC(=O)N(CCCCCCN1C[C@H](O)[C@@H](O)[C@H](O)[C@H]1CO)C1CCCCC1 = 34.2

Okay, next one:
## Task Given CC(C)(C)C(=O)N(CCCCCCN1C[C@H](O)[C@@H](O)[C@H](O)[C@H]1CO)C1CCCCC1 , state its recorded efflux ratio.
## Result 31.7

* * *

- Measurement Description: in vivo
- Details: male, Sprague-Dawley, rat, ip, 5 mg/kg
Test Readout: Cmax
For clarity, give the value followed by its unit.

## Task Given CC(C)(C)NC(=O)N(CCCCCCN1C[C@H](O)[C@@H](O)[C@H](O)[C@H]1CO)C1CCCCC1 [IHVR19029] , state its recorded Cmax.
## Result 1330 ng/mL

* * *

- Measurement Description: in vitro
- Details: hamster
Test Readout: CC50

Dear colleague, could you send me CC50 for each of the items below? Thanks.
1. OC[C@@H]1[C@@H](O)[C@H](O)[C@@H](O)CN1CCCCCCOc1cc(F)ccc1F
2. CC(C)(C)C(=O)N(CCCCCCN1C[C@H](O)[C@@H](O)[C@H](O)[C@H]1CO)C1CCCCC1
3. CC(C)(C)NC(=O)N(CCCCCCN1C[C@H](O)[C@@H](O)[C@H](O)[C@H]1CO)C1CCCCC1

## Result
["> 500 µM", "> 500 µM", "> 500 µM"]

* * *

- Measurement Description: in vivo
- Details: male, Sprague-Dawley, rat, po, 25 mg/kg
Test Readout: Cmax
For clarity, give the value followed by its unit.

## Task Given CC(C)(C)C(=O)N(CCCCCCN1C[C@H](O)[C@@H](O)[C@H](O)[C@H]1CO)C1CCCCC1 , state its recorded Cmax.
## Result 180 ng/mL

* * *

Hi there, I'd appreciate the recorded IC50 for every entry that follows.
- Test system: CYP1A2, CYP2C9, CYP2C19, CYP2D6 and CYP3A4
- Measurement Description: in vitro
- Details: human

Reference set (2 entries):
CC(C)(C)C(=O)N(CCCCCCN1C[C@H](O)[C@@H](O)[C@H](O)[C@H]1CO)C1CCCCC1 = > 10 µM
CC(C)(C)NC(=O)N(CCCCCCN1C[C@H](O)[C@@H](O)[C@H](O)[C@H]1CO)C1CCCCC1 = > 10 µM

Okay, next one:
## Task Given OC[C@@H]1[C@@H](O)[C@H](O)[C@@H](O)CN1CCCCCCOc1cc(F)ccc1F , state its recorded IC50.
## Result > 10 µM

* * *

- Measurement Description: in vivo
- Details: male, Sprague-Dawley, rat, iv, 5 mg/kg
Test Readout: half-life (h)
Answers are plain numbers, in h.

CC(C)(C)NC(=O)N(CCCCCCN1C[C@H](O)[C@@H](O)[C@H](O)[C@H]1CO)C1CCCCC1 [IHVR19029] = 1.2

## Task Given CC(C)(C)C(=O)N(CCCCCCN1C[C@H](O)[C@@H](O)[C@H](O)[C@H]1CO)C1CCCCC1 [IHVR17028] , state its recorded half-life.
## Result 0.88
